System: Staphylococcus aureus
Test: Antibacterial activity against methicillin resistant Staphylococcus aureus ATCC 34404 by microdilution method
Type: functional
observation_type: log10 MIC (log10 of the value in µg/mL)

{"compound": "CC(C)C(C(=O)O)N1C(=O)/C(=C/c2ccc(Cl)cc2Cl)SC1=S (stereo not drawn)", "reported_measurement": 1.19}
{"compound": "O=C(O)CN1C(=O)/C(=C/c2ccnc3ccccc23)SC1=S", "reported_measurement": 2.30}
{"compound": "O=C(O)CN1C(=O)/C(=C/c2ccc(Cl)c(Cl)c2)SC1=S", "reported_measurement": 2.10}
{"compound": "COc1ccc(/C=C2\\SC(=S)N(CC(=O)O)C2=O)cc1", "reported_measurement": 2.30}
{"compound": "CCCC(C(=O)O)N1C(=O)/C(=C/c2ccc(Cl)cc2Cl)SC1=S (stereo not drawn)", "reported_measurement": 1.19}
{"compound": "O=C(O)CN1C(=O)/C(=C/c2ccc([N+](=O)[O-])cc2)SC1=S", "reported_measurement": 2.40}
{"compound": "O=C(O)CN1C(=O)/C(=C/C2CCCCC2)SC1=S", "reported_measurement": 1.49}
{"compound": "CC(C)CC(C(=O)O)N1C(=O)/C(=C/c2ccc(Cl)cc2Cl)SC1=S (stereo not drawn)", "reported_measurement": 1.19}
{"compound": "CCSCC(C(=O)O)N1C(=O)/C(=C/c2ccc(Cl)cc2Cl)SC1=S (stereo not drawn)", "reported_measurement": 1.49}
{"compound": "O=C(O)CN1C(=O)/C(=C/C=C/c2ccccc2)SC1=S", "reported_measurement": 2.40}
{"compound": "O=C(O)CN1C(=O)/C(=C/c2ccccc2[N+](=O)[O-])SC1=S", "reported_measurement": 1.80}
{"compound": "O=C(O)C(Cc1ccccc1)N1C(=O)/C(=C/c2ccc(Cl)cc2Cl)SC1=S (stereo not drawn)", "reported_measurement": 1.19}
{"compound": "O=C(O)CN1C(=O)/C(=C/c2cccc(Oc3ccccc3)c2)SC1=S", "reported_measurement": 1.49}
{"compound": "O=C(O)C(Cc1ccccc1)N1C(=O)/C(=C/c2cccc(Oc3ccccc3)c2)SC1=S (stereo not drawn)", "reported_measurement": 0.29}
{"compound": "O=C(O)C(Cc1ccccc1)N1C(=O)/C(=C/c2ccccc2[N+](=O)[O-])SC1=S (stereo not drawn)", "reported_measurement": 2.10}
{"compound": "CC1(C)S[C@@H]2[C@H](NC(=O)Cc3ccccc3)C(=O)N2[C@H]1C(=O)O", "reported_measurement": 1.49}
{"compound": "CC(C)C(C(=O)O)N1C(=O)/C(=C/c2cccc3ccccc23)SC1=S (stereo not drawn)", "reported_measurement": 1.80}
